- TESTED SYSTEM: Sigma 2 (Rattus norvegicus)
- Sequence (Q5U3Y7 1-176): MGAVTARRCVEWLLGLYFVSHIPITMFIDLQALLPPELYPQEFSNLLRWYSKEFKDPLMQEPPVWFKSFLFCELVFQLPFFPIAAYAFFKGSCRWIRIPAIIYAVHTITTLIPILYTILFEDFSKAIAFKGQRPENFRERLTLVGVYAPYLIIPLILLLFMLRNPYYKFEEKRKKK
# reported Ki; entries follow
Give just the numeric value; µM need not be written.

| MOLECULE | MEASUREMENT |
| --- | --- |
| Clc1ccccc1C(Cc1ccccc1)N1CCCCC1 (centres unmarked) | 0.474 |
| COc1ccc(C(Cc2ccccc2)N2CCCCC2)cc1 (centres unmarked) | 0.564 |
| c1ccc(CC(c2ccccc2)N2CCCCC2)cc1 (centres unmarked) | 0.193 |
| COc1cccc(C(Cc2ccccc2)N2CCCCC2)c1 (centres unmarked) | 0.633 |

Query string: Lookup: Ki / Sigma 2 (Rattus norvegicus) / COc1ccccc1C(Cc1ccccc1)N1CCCCC1 (centres unmarked)
Result string: 0.508

---

- TESTED SYSTEM: M5 (Homo sapiens, UniProt P08912)
- Sequence (P08912 whole entry): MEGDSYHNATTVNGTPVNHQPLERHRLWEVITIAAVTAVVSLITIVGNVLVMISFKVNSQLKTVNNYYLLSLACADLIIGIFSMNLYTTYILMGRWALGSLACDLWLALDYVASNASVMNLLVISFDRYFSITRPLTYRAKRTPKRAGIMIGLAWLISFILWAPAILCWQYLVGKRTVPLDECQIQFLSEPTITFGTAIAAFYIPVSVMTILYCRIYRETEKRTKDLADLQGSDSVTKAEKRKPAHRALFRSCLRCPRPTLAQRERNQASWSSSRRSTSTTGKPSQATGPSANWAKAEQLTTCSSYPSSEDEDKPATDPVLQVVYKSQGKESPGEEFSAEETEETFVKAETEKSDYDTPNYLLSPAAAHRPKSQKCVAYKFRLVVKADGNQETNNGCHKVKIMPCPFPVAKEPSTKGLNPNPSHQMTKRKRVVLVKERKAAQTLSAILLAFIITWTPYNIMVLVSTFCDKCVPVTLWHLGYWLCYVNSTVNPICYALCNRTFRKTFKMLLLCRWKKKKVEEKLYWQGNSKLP
Assign labels as follows, please: Condition met for Ki below 2000 nM; Condition not met for Ki equal to or exceeding 2000 nM.

| MOLECULE | CATEGORY LABEL |
| --- | --- |
| COc1cccc(C(Cc2ccccc2)N2CCCCC2)c1 (centres unmarked) | Condition met |
| COc1ccc(C(Cc2ccccc2)N2CCCCC2)cc1 (centres unmarked) | Condition not met |
| COc1ccccc1C(Cc1ccccc1)N1CCCCC1 (centres unmarked) | Condition met |
| c1ccc(CC(c2ccccc2)N2CCCCC2)cc1 (centres unmarked) | Condition met |

Then there is this molecule:
Query string: Below 2000 nM on Ki? Entry Clc1ccccc1C(Cc1ccccc1)N1CCCCC1 (centres unmarked)
Result string: Condition met

---

Reported values: Ki for UniProt:P41145, one per item.
Sequence (P41145 whole entry): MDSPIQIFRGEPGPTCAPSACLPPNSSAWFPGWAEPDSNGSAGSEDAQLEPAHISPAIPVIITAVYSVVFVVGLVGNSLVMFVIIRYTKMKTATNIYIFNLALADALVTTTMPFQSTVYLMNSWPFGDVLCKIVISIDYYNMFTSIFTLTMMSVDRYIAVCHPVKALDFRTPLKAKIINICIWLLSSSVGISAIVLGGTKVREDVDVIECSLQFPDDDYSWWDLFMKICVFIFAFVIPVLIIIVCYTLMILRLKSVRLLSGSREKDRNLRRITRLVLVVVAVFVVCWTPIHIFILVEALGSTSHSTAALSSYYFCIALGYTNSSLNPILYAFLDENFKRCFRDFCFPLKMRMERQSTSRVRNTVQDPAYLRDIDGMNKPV
Give just the numeric value; nM need not be written.

Here are 2 molecules together with their reported answers.
| MOLECULE | PROPERTY NAME | MEASUREMENT |
| --- | --- | --- |
| COc1ccccc1C(Cc1ccccc1)N1CCCCC1 (stereo not shown) | Ki | 1690 |
| COc1cccc(C(Cc2ccccc2)N2CCCCC2)c1 (stereo not shown) | Ki | 2260 |

Query string: So what's the measured Ki for this one? c1ccc(CC(c2ccccc2)N2CCCCC2)cc1 (stereo not shown)
Result string: 3900

Query string: So what's the measured Ki for this one? Clc1ccccc1C(Cc1ccccc1)N1CCCCC1 (stereo not shown)
Result string: 642

---

- TESTED SYSTEM: UniProtKB P18089
- Sequence (P18089 whole entry): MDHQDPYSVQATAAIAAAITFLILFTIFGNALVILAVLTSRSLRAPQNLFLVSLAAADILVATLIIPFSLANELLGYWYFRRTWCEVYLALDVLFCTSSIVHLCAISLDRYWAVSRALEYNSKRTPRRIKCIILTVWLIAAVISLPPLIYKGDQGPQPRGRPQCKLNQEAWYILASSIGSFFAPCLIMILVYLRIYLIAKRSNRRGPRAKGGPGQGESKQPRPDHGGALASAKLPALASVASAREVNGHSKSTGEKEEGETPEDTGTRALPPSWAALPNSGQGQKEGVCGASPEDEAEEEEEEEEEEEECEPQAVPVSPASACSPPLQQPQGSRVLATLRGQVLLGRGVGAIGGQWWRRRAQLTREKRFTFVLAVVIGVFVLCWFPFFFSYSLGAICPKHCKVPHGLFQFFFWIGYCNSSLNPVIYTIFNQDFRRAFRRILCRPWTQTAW
PROPERTY NAME: Ki (µM)
Give just the numeric value; µM need not be written.

Query string: Lookup: Ki / UniProtKB P18089 / c1ccc(CC(c2ccccc2)N2CCCCC2)cc1 (stereo not shown)
Result string: 4.38

---

# reported pKi; entries follow
- TESTED SYSTEM: M2 (Homo sapiens, UniProt P08172)
- Sequence (P08172 whole entry): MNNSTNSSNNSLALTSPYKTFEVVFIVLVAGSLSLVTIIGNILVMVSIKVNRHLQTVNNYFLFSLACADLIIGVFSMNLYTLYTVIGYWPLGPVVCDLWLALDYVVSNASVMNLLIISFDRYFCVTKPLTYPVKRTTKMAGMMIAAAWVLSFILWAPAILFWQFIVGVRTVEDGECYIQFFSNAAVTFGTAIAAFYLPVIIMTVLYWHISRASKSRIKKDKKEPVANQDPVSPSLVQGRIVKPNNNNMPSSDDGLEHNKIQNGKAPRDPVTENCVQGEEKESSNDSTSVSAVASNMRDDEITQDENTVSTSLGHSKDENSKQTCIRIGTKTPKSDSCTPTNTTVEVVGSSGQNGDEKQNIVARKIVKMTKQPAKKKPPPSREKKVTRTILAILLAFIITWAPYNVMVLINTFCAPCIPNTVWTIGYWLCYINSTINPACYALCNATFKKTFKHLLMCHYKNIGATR
Scale note: pKi = -log10(concentration in M).

Query string: Lookup: pKi / M2 (Homo sapiens, UniProt P08172) / COc1cccc(C(Cc2ccccc2)N2CCCCC2)c1 (stereo not shown)
Result string: 5.53

Query string: Lookup: pKi / M2 (Homo sapiens, UniProt P08172) / Clc1ccccc1C(Cc1ccccc1)N1CCCCC1 (stereo not shown)
Result string: 6.04

Query string: Lookup: pKi / M2 (Homo sapiens, UniProt P08172) / COc1ccc(C(Cc2ccccc2)N2CCCCC2)cc1 (stereo not shown)
Result string: 5.79

Query string: Lookup: pKi / M2 (Homo sapiens, UniProt P08172) / c1ccc(CC(c2ccccc2)N2CCCCC2)cc1 (stereo not shown)
Result string: 5.43

---

# reported log10 IC50; entries follow
- TESTED SYSTEM: UniProt:Q01959
- ASSAY PROCEDURE: Monoamine reuptake inhibition assay, DAT in HEK293 cells
- Protocol: Monoamine reuptake inhibition assays were performed via the NIMH PDSP as previously described.[28] In brief, the neurotransmitter transporter uptake assay kit (R8174) (Molecular Devices) was used. […] 25 μL of dye solution was then added and following an additional 30 min incubation (at 37°C) fluorescence intensity was measured using a FlexStation II (bottom read mode, excitation wavelength = […], emission = 520 nM with a cutoff of 510 nM). […]
Response schema: value (number) is log10 of IC50 in units of nM.

Here are 4 molecules together with their reported answers.
| MOLECULE | MEASUREMENT |
| --- | --- |
| c1ccc(CC(c2ccccc2)N2CCCCC2)cc1 (centres unmarked) [DPH, diphenidine] | 3.30 |
| Clc1ccccc1C(Cc1ccccc1)N1CCCCC1 (centres unmarked) [2-Cl-DPH, 2-Cl-diphenidine] | 4.02 |
| COc1ccc(C(Cc2ccccc2)N2CCCCC2)cc1 (centres unmarked) [4-MXP, 4-methoxy-diphenidine] | 3.35 |
| COc1cccc(C(Cc2ccccc2)N2CCCCC2)c1 (centres unmarked) [3-MXP, 3-methoxy-diphenidine] | 2.77 |

// switching to the query molecule
Query string: So what's the measured log10 IC50 for this one? COc1ccccc1C(Cc1ccccc1)N1CCCCC1 (centres unmarked) [2-MXP, 2-methoxydiphenidine]
Result string: 4.48

---

- TESTED SYSTEM: Alpha2C (Homo sapiens, UniProt P18825)
- Sequence (P18825 whole entry): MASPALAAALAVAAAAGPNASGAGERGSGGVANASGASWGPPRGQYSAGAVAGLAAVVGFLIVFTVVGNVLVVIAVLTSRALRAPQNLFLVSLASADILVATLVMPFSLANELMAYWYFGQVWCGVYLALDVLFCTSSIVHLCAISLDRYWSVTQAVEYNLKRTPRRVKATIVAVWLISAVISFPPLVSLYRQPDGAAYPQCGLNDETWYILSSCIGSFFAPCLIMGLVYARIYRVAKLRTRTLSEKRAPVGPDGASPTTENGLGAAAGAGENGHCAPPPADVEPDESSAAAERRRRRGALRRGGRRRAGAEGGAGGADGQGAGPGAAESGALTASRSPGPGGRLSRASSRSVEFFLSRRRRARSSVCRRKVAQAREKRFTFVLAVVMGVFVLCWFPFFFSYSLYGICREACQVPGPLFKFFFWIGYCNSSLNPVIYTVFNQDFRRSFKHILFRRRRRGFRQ
PROPERTY NAME: pKi
Scale note: pKi = -log10(concentration in M).

Here are 3 molecules together with their reported answers.
| MOLECULE | TESTED SYSTEM | pKi |
| --- | --- | --- |
| COc1ccc(C(Cc2ccccc2)N2CCCCC2)cc1 (stereo not shown) | Alpha2C (Homo sapiens, UniProt P18825) | 5.60 |
| c1ccc(CC(c2ccccc2)N2CCCCC2)cc1 (stereo not shown) | Alpha2C (Homo sapiens, UniProt P18825) | 5.52 |
| COc1ccccc1C(Cc1ccccc1)N1CCCCC1 (stereo not shown) | Alpha2C (Homo sapiens, UniProt P18825) | 5.71 |

// switching to the query molecule
Query string: Lookup: pKi / Alpha2C (Homo sapiens, UniProt P18825) / Clc1ccccc1C(Cc1ccccc1)N1CCCCC1 (stereo not shown)
Result string: 5.74

---

# reported Ki; entries follow
- TESTED SYSTEM: Alpha2A (Homo sapiens, UniProt P08913)
- Sequence (P08913 whole entry): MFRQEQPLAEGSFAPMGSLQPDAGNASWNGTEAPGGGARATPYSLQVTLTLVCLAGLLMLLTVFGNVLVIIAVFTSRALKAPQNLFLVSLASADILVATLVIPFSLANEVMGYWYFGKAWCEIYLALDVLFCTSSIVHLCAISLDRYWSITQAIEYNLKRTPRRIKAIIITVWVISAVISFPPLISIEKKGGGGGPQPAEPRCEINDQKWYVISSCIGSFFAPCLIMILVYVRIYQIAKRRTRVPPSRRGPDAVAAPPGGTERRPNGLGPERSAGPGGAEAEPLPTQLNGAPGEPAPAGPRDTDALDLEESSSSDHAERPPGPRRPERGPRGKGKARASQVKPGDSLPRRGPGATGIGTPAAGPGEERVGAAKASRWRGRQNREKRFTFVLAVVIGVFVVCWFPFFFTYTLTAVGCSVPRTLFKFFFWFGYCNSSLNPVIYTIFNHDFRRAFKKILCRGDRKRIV
Give just the numeric value; µM need not be written.

Query string: Lookup: Ki / Alpha2A (Homo sapiens, UniProt P08913) / Clc1ccccc1C(Cc1ccccc1)N1CCCCC1 (centres unmarked) [2-Cl-DPH, 2-Cl-diphenidine]
Result string: 2.69

Query string: Lookup: Ki / Alpha2A (Homo sapiens, UniProt P08913) / COc1ccccc1C(Cc1ccccc1)N1CCCCC1 (centres unmarked) [2-MXP, 2-methoxydiphenidine]
Result string: 2

---

Reported values: Ki for H3 (Homo sapiens), one per item.
Give just the numeric value; nM need not be written.

Here are 2 molecules together with their reported answers.
| MOLECULE | TESTED SYSTEM | PROPERTY NAME | MEASUREMENT |
| --- | --- | --- | --- |
| COc1ccc(C(Cc2ccccc2)N2CCCCC2)cc1 (stereo not drawn) [4-MXP, 4-methoxy-diphenidine] | H3 (Homo sapiens) | Ki | 556 |
| COc1cccc(C(Cc2ccccc2)N2CCCCC2)c1 (stereo not drawn) [3-MXP, 3-methoxy-diphenidine] | H3 (Homo sapiens) | Ki | 1470 |

// switching to the query molecule
Query string: So what's the measured Ki for this one? c1ccc(CC(c2ccccc2)N2CCCCC2)cc1 (stereo not drawn) [DPH, diphenidine]
Result string: 1020

---

Reported values: Ki for H1 (Homo sapiens, UniProt P35367), one per item.
Give just the numeric value; nM need not be written.

Here are 3 molecules together with their reported answers.
| MOLECULE | PROPERTY NAME | UNIT TEXT | MEASUREMENT |
| --- | --- | --- | --- |
| c1ccc(CC(c2ccccc2)N2CCCCC2)cc1 (stereo not shown) | Ki | nM | 1340 |
| COc1cccc(C(Cc2ccccc2)N2CCCCC2)c1 (stereo not shown) | Ki | nM | 2030 |
| COc1ccc(C(Cc2ccccc2)N2CCCCC2)cc1 (stereo not shown) | Ki | nM | 4530 |

// switching to the query molecule
Query string: Lookup: Ki / H1 (Homo sapiens, UniProt P35367) / COc1ccccc1C(Cc1ccccc1)N1CCCCC1 (stereo not shown)
Result string: 533

---

- TESTED SYSTEM: MOR (Homo sapiens)
- Sequence (P35372 whole entry): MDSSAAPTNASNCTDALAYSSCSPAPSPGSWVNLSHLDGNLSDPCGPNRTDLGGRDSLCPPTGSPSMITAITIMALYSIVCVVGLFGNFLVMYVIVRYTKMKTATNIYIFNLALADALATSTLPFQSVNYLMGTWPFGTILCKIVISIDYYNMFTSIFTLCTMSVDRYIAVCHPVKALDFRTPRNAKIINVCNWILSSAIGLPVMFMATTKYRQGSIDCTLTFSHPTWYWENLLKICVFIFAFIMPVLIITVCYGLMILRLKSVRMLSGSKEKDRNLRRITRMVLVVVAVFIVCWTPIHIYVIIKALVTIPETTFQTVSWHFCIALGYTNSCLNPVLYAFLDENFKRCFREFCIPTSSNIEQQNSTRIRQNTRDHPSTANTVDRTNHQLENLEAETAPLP
PROPERTY NAME: pKi
Scale note: pKi = -log10(concentration in M).

Query string: So what's the measured pKi for this one? Clc1ccccc1C(Cc1ccccc1)N1CCCCC1 (stereo not shown)
Result string: 5.69

---

- TESTED SYSTEM: DAT (Homo sapiens)
- Sequence (Q01959 whole entry): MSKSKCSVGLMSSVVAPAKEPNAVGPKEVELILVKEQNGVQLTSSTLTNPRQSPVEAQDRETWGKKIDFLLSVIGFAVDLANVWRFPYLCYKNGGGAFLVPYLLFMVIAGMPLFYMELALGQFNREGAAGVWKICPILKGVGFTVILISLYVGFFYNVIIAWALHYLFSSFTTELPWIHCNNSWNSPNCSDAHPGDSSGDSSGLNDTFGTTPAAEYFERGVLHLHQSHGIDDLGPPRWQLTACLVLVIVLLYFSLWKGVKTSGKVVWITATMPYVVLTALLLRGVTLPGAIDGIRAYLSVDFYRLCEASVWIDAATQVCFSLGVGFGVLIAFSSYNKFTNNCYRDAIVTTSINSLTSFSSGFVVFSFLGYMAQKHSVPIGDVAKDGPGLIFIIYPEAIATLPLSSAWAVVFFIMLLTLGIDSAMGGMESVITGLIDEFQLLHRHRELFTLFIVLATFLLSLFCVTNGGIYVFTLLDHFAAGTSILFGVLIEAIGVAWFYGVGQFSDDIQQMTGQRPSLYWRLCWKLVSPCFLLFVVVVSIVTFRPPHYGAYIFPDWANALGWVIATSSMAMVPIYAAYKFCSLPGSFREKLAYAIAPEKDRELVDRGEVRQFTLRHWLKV
- ASSAY PROCEDURE: Monoamine reuptake inhibition assay, DAT in HEK293 cells
- Assay type: cell-based
- Design: expressed in transfected cells; host or cells: HEK293
- CONDITION PARAMETERS: HEK293 cells
Please use Condition met whenever Hill slope DAT reuptake inhibition is not below 0.8, and Condition not met whenever it is.

// below: answered compounds
| COMPOUND | CATEGORY LABEL |
| --- | --- |
| COc1cccc(C(Cc2ccccc2)N2CCCCC2)c1 (centres unmarked) [3-MXP, 3-methoxy-diphenidine] | Condition met |
| c1ccc(CC(c2ccccc2)N2CCCCC2)cc1 (centres unmarked) [DPH, diphenidine] | Condition met |
| COc1ccc(C(Cc2ccccc2)N2CCCCC2)cc1 (centres unmarked) [4-MXP, 4-methoxy-diphenidine] | Condition met |

Then there is this compound:
Query string: Given the entry Clc1ccccc1C(Cc1ccccc1)N1CCCCC1 (centres unmarked) [2-Cl-DPH, 2-Cl-diphenidine] , answer whether its Hill slope DAT reuptake inhibition meets or surpasses 0.8.
Result string: Condition not met
